# targetSystem: UniProt Q72547
Each record is given YES if its reported IC50 is strictly below 7 nM. Records at or above 7 nM are given NO.

Record excerpt, results attached:
- Cc1cc(C)c(-n2nnnc2SCC(=O)Nc2ccc(S(N)(=O)=O)cc2)c(C)c1: NO
- Cc1cc(C)c(-n2nnnc2SCC(=O)Nc2ccc(Cl)cc2[N+](=O)[O-])c(C)c1: YES
- O=C(CSc1nnnn1-c1cc(F)ccc1Cl)Nc1ccccc1[N+](=O)[O-]: NO
- Cc1cc(C)c(-n2nnnc2SCC(=O)Nc2ccc(OCCCN(C)C)cc2Cl)c(C)c1: NO
- NS(=O)(=O)c1ccc(NC(=O)CSc2nnnn2-c2cc(Cl)ccc2Cl)c(Cl)c1: YES
- Cc1cccc(-n2nnnc2SCC(=O)Nc2ccccc2[N+](=O)[O-])c1C: NO
- Cc1cc(C)c(-n2nnnc2SCC(=O)Nc2ccc(S(N)(=O)=O)cc2Cl)c(C)c1: YES
- Cc1cc(C)c(-n2nnnc2SCC(=O)Nc2ccc([N+](=O)[O-])cc2)c(C)c1: NO

Lab note: IC50 threshold 7 nM. Does this compound come in strictly under it? "O=C(CSc1nnnn1-c1cccc(Cl)c1Cl)Nc1ccccc1[N+](=O)[O-]"
NO
